Data credit: patent US9750719B2

- study system: human Cav2.2 α (α1B) subunit, along with the human β3 and α2δ1 auxiliary subunits (Homo sapiens, UniProt Q00975)
- Construct: expressed in transfected cells
- Sequence (Q00975 whole entry): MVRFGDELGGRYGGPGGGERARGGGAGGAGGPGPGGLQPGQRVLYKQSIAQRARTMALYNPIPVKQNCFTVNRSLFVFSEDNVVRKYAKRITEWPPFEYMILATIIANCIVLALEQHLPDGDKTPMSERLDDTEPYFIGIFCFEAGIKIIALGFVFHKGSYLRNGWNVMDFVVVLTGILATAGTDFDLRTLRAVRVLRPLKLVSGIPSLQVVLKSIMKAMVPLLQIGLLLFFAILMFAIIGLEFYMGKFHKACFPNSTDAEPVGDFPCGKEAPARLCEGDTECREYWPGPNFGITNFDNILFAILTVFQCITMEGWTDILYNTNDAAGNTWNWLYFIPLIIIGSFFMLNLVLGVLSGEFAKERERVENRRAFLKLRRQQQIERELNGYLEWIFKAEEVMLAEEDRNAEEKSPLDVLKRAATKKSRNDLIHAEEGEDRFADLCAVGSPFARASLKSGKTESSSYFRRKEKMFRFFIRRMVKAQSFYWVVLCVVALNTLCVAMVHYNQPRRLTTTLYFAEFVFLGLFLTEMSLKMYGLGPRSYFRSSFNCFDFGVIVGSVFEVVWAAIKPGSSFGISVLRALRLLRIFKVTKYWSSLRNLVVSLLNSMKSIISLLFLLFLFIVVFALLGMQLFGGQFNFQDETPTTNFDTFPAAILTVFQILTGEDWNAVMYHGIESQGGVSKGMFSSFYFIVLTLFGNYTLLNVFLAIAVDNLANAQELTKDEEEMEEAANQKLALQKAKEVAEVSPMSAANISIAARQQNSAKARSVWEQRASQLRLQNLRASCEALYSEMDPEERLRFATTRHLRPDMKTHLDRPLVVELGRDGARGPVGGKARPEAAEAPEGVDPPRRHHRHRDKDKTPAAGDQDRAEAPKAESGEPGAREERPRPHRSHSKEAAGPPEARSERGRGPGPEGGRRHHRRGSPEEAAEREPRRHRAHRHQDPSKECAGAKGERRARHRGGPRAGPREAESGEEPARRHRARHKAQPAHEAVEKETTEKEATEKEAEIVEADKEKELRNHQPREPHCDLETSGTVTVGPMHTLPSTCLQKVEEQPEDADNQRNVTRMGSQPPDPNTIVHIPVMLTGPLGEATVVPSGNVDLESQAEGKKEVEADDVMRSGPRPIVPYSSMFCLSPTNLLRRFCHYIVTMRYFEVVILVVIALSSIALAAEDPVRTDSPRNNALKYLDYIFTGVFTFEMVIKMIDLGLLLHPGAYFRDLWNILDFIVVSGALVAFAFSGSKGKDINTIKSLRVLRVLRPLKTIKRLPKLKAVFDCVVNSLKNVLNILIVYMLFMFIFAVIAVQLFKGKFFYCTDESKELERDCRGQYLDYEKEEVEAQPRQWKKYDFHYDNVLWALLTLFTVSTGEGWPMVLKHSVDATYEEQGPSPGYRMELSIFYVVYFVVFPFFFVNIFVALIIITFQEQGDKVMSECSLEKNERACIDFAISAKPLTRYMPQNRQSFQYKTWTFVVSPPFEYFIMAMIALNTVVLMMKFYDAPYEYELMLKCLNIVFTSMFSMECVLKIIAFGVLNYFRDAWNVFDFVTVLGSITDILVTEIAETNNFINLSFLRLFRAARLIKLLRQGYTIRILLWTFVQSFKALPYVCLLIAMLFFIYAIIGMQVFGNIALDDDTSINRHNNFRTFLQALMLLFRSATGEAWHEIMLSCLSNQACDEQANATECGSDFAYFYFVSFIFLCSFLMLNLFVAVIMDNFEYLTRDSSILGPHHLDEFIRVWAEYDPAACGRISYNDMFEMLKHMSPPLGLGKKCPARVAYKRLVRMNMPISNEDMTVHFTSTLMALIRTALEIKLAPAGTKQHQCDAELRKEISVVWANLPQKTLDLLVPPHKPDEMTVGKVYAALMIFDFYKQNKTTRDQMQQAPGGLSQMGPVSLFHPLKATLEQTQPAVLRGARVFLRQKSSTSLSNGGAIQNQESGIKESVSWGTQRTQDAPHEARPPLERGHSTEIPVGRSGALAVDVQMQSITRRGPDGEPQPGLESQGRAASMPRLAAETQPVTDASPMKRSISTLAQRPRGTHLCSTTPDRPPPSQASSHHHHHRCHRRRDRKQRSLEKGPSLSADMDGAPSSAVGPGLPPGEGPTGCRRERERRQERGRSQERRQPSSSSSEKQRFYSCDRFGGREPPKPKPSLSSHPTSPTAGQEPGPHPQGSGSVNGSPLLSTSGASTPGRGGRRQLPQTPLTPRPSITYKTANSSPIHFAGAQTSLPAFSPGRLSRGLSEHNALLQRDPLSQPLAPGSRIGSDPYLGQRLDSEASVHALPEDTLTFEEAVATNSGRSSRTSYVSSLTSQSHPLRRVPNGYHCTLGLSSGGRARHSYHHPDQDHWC
- Sequence (P54284 whole entry partner): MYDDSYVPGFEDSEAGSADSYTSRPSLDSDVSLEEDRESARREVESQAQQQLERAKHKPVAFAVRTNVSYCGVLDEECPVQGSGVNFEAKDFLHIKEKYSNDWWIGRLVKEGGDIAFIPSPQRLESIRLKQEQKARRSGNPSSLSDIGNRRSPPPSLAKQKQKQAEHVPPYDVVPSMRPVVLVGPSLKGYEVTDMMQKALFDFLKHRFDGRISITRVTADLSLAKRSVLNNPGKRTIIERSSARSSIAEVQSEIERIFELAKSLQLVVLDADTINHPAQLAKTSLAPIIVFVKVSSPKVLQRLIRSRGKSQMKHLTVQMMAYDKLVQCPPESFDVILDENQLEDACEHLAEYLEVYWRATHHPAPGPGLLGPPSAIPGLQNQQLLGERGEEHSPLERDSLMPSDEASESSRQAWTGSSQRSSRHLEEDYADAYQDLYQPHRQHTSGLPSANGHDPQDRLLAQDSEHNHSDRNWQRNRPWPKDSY
- Sequence (P54289 25-946 partner limits assumed): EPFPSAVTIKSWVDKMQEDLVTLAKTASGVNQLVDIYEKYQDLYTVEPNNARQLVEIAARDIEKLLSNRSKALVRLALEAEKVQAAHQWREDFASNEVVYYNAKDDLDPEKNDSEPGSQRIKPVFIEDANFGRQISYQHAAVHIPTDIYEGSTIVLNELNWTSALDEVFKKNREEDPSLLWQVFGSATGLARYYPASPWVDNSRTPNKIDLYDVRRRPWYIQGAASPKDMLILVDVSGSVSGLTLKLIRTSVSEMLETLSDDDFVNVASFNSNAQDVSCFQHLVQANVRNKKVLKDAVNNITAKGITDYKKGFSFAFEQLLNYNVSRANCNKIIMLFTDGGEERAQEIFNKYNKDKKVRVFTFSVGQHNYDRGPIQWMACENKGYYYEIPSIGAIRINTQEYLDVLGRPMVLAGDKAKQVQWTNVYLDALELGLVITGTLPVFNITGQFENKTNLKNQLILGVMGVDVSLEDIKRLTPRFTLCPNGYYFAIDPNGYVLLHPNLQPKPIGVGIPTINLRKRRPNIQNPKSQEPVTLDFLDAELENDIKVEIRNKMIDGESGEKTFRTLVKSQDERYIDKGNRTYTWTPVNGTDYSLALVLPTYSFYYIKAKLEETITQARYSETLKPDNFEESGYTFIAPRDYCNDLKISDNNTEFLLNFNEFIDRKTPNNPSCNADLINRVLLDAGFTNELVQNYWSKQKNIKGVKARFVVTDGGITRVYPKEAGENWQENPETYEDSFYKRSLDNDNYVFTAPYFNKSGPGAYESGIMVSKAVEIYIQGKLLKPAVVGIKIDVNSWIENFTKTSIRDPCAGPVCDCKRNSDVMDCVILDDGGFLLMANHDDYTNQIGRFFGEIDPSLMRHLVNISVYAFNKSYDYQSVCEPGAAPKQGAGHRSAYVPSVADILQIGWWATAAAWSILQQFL
- Sequence (P54289 947-1103 partner limits assumed): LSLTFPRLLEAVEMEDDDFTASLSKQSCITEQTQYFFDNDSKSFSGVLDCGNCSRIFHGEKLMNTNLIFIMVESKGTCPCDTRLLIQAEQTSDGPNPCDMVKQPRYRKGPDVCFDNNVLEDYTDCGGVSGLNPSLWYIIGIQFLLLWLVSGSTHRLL
- measurement notes: hCav2.2 assay, IonWorks planar array electrophysiology in stable HEK293 cell line
- Type: cell-based
- test parameters: inhibition by 50% of current elicited by the 1st depolarising pulse; HEK293 cells; read-out: tonic pIC50 (converted)
Structures can show the parent of a compound that is named as a salt.
outcome measure: IC50

stdin: Using the record for CC(C)N1CCN(Cc2nnnn2-c2cccc(C(F)(F)F)c2)[C@H](C)C1 [Compound 94, hydrochloride] , report its IC50.
stdout: ≤ 31.6 µM

stdin: Would you mind doing CCS(=O)(=O)N1CCN(Cc2nnnn2-c2ccc(C#N)c(C(F)(F)F)c2)CC1 as well?
stdout: ≤ 3.16 µM

stdin: Would you mind doing CCS(=O)(=O)N1CCN(Cc2nnnn2-c2cccc(C(F)(F)F)c2)CC1 as well?
stdout: ≤ 3.16 µM

stdin: Would you mind doing FC(F)(F)c1cc(-n2nnnc2CN2CCOCC2)ccc1Cl as well?
stdout: ≤ 3.16 µM

Could you tell me IC50 for each of these molecules? They are listed below.
1. CC(C)N1CCC2(CCN(Cc3nnnn3-c3ccc(C#N)c(C(F)(F)F)c3)CC2)C1 [Compound 147, dihydrochloride]
2. C[C@@H]1CN(Cc2nnnn2-c2ccc(C#N)c(C(F)(F)F)c2)C[C@H](C)O1
3. FC(F)(F)c1cccc(-n2nnnc2CN2CCOCC2)c1

stdout:
1: ≤ 3.16 µM; 2: ≤ 10 µM; 3: ≤ 31.6 µM

Could you tell me IC50 for each of these molecules? They are listed below.
1. CS(=O)(=O)N1CCN(Cc2nnnn2-c2ccc(C(F)(F)F)cc2)CC1
2. CCN1CCN(Cc2nnnn2-c2ccc(C(F)(F)F)cc2)[C@H](C)C1=O
3. CC(C)N1CCN(Cc2nnnn2-c2ccc(C(F)(F)F)cc2)[C@H](C)C1=O
4. O=S1(=O)CCC2CN(Cc3nnnn3-c3cccc(C(F)(F)F)c3)CCN21 (centres unmarked)
5. FC(F)(F)c1cccc(-n2nnnc2CNC2CCCCC2)c1 [Compound 65, hydrochloride]
6. N#Cc1ccc(-n2nnnc2CN2CCNCC2)cc1C(F)(F)F

stdout:
1. ≤ 3.16 µM
2. ≤ 31.6 µM
3. ≤ 10 µM
4. ≤ 31.6 µM
5. ≤ 31.6 µM
6. ≤ 10 µM
